Entries and their Selectivity ratio values follow.
Organism: Homo sapiens
Assay: Selectivity ratio of IC50 for human geranylgeranyltransferase-1 to IC50 for human farnesyltransferase

Consider the following illustrative entries.
>  <smiles.str>
Cn1cnc(S(=O)(=O)N(CCN(Cc2cncn2C)c2ccc(C(N)=O)cc2)Cc2ccccc2)c1

>  <Selectivity ratio>
> 2

$$$$
>  <smiles.str>
Cn1cnc(S(=O)(=O)N(CCN(Cc2cncn2C)c2c(F)c(F)c(C#N)c(F)c2F)CC2CCN(c3ncccn3)CC2)c1

>  <Selectivity ratio>
18

$$$$
>  <smiles.str>
Cn1cnc(S(=O)(=O)N(CCN(Cc2cncn2C)c2c(F)cc(C#N)cc2F)CC2CCN(c3ncccn3)CC2)c1

>  <Selectivity ratio>
> 34

$$$$
>  <smiles.str>
Cn1cnc(S(=O)(=O)N(CCN(Cc2cncn2C)c2ccc(C#N)cc2)Cc2ccsc2)c1

>  <Selectivity ratio>
14

$$$$
>  <smiles.str>
Cn1cnc(S(=O)(=O)N(CCN(Cc2cncn2C)c2ccc(C#N)cc2F)CC2CCN(c3ncccn3)CC2)c1

>  <Selectivity ratio>
> 156

$$$$

For the next question, use this compound.
Input line: Query: Selectivity ratio; subject: Cc1nc(C)c(CN(CCN(Cc2cncn2C)c2ccc(C#N)cc2)S(=O)(=O)c2cn(C)cn2)s1
Output line: > 1.6

Where these numbers come from: ChEMBL document CHEMBL1255187
